Biological target: T1, PUF4 RNA-binding domain (Saccharomyces cerevisiae, UniProt P25339 537-888)
T1 sequence: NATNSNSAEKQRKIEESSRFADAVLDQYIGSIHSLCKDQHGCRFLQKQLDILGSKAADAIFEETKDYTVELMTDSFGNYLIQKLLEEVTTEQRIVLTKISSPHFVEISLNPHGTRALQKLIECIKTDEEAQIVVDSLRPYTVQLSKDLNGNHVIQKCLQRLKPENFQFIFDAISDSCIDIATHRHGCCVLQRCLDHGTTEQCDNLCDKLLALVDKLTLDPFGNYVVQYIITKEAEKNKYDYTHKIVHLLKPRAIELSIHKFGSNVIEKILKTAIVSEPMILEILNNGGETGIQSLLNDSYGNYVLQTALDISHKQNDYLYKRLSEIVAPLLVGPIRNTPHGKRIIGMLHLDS
Assay: Mg; RNA-MaP; 20 mM Na-HEPES pH 7.4, 30 mM KOAc, 0.75 mM MgCl2, 0.1% Tween-20, 5% glycerol, 0.1 mg/mL BSA, 2 mM DTT; 25 C; 0.0125-409.6 nM protein
Details: tags: N-His6-TEV cleaved; C-SNAP kept, Cy3B-labelled; label: tethered on chip by stalled RNA polymerase
Threshold check on Kd: strictly below 80 nM is 1; on or above 80 nM is 0.

Previously resolved entries follow.
UCUCUUUGUAUGUUUCUCUU (ssRNA) [Ic_S1_P3E.1_K3.1_C3.1_H3.1_A3.1_[A6G]_F3.1_[A8T]_T3.1] : 1
Ie_S2_P4E.1_K4.1_C4.1_H4.1_A4.1_F4.1_[+9TTT]_T4.1 (ssRNA) RNA: UUUGAUUAAUAUGAUAUCGUUCUUUCUUGUAUAUUAUUUUUCUUUCUCGAUAUCAUAUUAAUCUUU : 1
Id_ii_S4_P4E.3_K4.2_C4.2_[C-2T]_H4.2_A4.1_F4.1_T4.2_[G10T]_[T11G] (ssRNA) RNA: UUUGACAACUGAUCGUUCUUUCUUUUAUAUAUUAUGUUCUUUCUCGAUCAGUUGUCUUU : 1
UCUCUUUGUACAGCUCUCUU (ssRNA) [Ic_S1_P3E.1_K3.1_C3.1_H3.1_A3.1_[T5C]_F3.1_[T7G]_[A8C]_T3.1] : 1
Id_ii_S2_P5E.2_K5.1_C5.2_[T-1C]_H5.1_A5.1_F5.1_T5.2_[A12G] (ssRNA) RNA: UUUGAUUAAUAUGAUAUCGUUCUUUCUCCUGUAUUAUUAUGUUCUUUCUCGAUAUCAUAUUAAUCUUU : 1
Id_iii_S2_P5E.7_K5.3_C5.3_[T-1C]_H5.3_A5.1_F5.1_T5.2 (ssRNA) RNA: UUUGAUUAAUAUGAUAUCGUUCUUUCUUCCACACUUAUUAUAUUCUUUCUCGAUAUCAUAUUAAUCUUU : 0

Strictly below 80 nM: is that where Kd of Ic_S2_P4E.1_K4.1_C4.1_H4.1_A4.1_[T5C]_[A6C]_[T7A]_F4.1_[A9C]_T4.1 (ssRNA) RNA: UUUGAUUAAUAUGAUAUCGUUCUUUCUUGUACCAUCUUCUUUCUCGAUAUCAUAUUAAUCUUU sits? 1

Strictly below 80 nM: is that where Kd of UCUCUUAAUGUAUAUAUUUCUCUU (ssRNA) [Id_ii_S1_P3E.2_K3.1_C3.2_[C-2A]_[T-1A]_H3.1_A3.1_F3.1_T3.2_[A10T]] sits? 1

Strictly below 80 nM: is that where Kd of Ic_S4_P3E.1_K3.1_C3.1_H3.1_A3.1_[T5A]_[A6T]_F3.1_[T7A]_[A8C]_T3.1 (ssRNA) RNA: UUUGACAACUGAUCGUUCUUUCUUGUAAUACUUCUUUCUCGAUCAGUUGUCUUU sits? 0
